Reported values of pEC50 for individual entries
Target: human calcitonin-2 receptor (hCT2R) (Homo sapiens, UniProt P30988)
Construct: receptor cDNA cloned from the MCF7 cell line
Sequence (P30988 25-474): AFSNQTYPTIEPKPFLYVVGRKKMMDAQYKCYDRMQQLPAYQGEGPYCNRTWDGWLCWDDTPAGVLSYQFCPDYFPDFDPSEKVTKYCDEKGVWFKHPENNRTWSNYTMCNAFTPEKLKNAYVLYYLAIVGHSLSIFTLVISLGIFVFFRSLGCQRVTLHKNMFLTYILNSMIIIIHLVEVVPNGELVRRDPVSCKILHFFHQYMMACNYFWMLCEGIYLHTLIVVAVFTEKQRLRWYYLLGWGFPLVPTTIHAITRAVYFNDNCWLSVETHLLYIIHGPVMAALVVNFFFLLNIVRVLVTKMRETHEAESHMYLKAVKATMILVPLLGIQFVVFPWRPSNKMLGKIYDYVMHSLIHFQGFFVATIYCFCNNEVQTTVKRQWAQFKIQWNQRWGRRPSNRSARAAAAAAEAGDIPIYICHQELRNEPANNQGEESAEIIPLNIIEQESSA
Test: HCT2R CRE-luc reporter assay
Conditions: agonist activity; CHO-6CRE-luciferase cells co-transfected with hCT2R
pEC50: −log10 of the molar value.

Completed entries (count: 3):
For this molecule ( CCOC(=O)c1c(CCc2ccc(C(F)(F)F)cc2)nc2c(c1-c1ccc(CNC(=O)c3cccnc3)s1)C(=O)N1CCC[C@@H]21 [Example 47] ), measured pEC50 is 7.00 to 8.00

For this molecule ( CCOC(=O)c1c(CCc2ccc(F)cc2)cc2c(c1-c1ccc(C(=O)OCc3ccccc3)cc1)C(=O)N1CCC[C@@H]21 [Example 48] ), measured pEC50 is ≤ 6.00

For this molecule ( CC(=O)c1c(CCc2ccc(F)cc2)nc2c(c1-c1ccc(C(=O)NCc3ccco3)cc1)C(=O)N1CCC[C@@H]21 [Example 29] ), measured pEC50 is 7.00 to 8.00

More entries:
For this molecule ( CCOC(=O)c1c(CCc2ccc(C(F)(F)F)cc2)nc2c(c1-c1ccc(C(=O)NCCc3cnc[nH]3)cc1)C(=O)N1CCC[C@@H]21 [Example 42] ), measured pEC50 is 6.00 to 7.00

For this molecule ( CCOC(=O)C1=C(CCc2ccc(C(F)(F)F)cc2)Nc2c(c(=O)n3n2CCC3)C1c1ccc(C(=O)N[C@@H]2CCc3ccccc32)cc1 (stereo partly drawn) [Example 61] ), measured pEC50 is 7.00 to 8.00

For this molecule ( CCOC(=O)c1c(CCc2ccc(F)cc2)nc2c(c1-c1ccc(C(=O)NCc3ccco3)cc1)c(=O)n1n2CCC1 [Example 8] ), measured pEC50 is ≥ 8.00
